Documented melting point across a set of compounds

Returns the measured melting point for the input compound. Input: CC(C)(C)NC(=O)NCC#CCNC(=O)Nc1nc2c(s1)-c1c(cnn1-c1ccccc1)CC2
196 °C

----------
Recorded melting point for the following compounds

The cases that follow already have their melting point on record.
[
  {
    "compound": "OC(c1cscn1)(c1cscn1)C(F)(F)F",
    "result-type": "melting point",
    "observed-value": "87 to 89 °C"
  },
  {
    "compound": "CN1CCN(c2ccccc2C=C2CCN(c3ccc(Cl)c(Cl)c3)C2=O)CC1",
    "result-type": "melting point",
    "observed-value": "177 to 179 °C"
  },
  {
    "compound": "CCCCOc1ccc(/C=C/c2nc3c([nH]2)c(=O)n(CCC)c(=O)n3CCC)cc1",
    "result-type": "melting point",
    "observed-value": "237 to 239 °C"
  },
  {
    "compound": "OCc1csc(NC2CCCCC2)n1",
    "result-type": "melting point",
    "observed-value": "118 to 120 °C"
  },
  {
    "compound": "CC(=O)c1cc2c(c(Br)c1O)CCCC2",
    "result-type": "melting point",
    "observed-value": "127 to 130 °C"
  },
  {
    "compound": "CC(C)c1cn2ccccc2c1S(=O)(=O)c1ccc(O)cc1",
    "result-type": "melting point",
    "observed-value": "179 to 180 °C"
  },
  {
    "compound": "Cc1c(CC(=O)O)c2cc(OCc3csc(-c4ccccc4)n3)ccc2n1Cc1ccc(Cl)cc1",
    "result-type": "melting point",
    "observed-value": "150 to 151 °C"
  },
  {
    "compound": "COc1ccc(-c2c(C)c(NC(=O)CC(C)(C)C)c(C)c3c2OCC3c2ccc(C(C)C)cc2)cn1 (stereo not given)",
    "result-type": "melting point",
    "observed-value": "120 to 123 °C"
  }
]

I am curious: what melting point value has been reported for CCOC(=O)Cc1cccc(N[C@@H](CCC(N)=O)C(=O)O)c1 ?
176 °C

Suppose we examine the compound CCOc1cc(CC)ccc1C1CCN(CCCCNC(=O)c2ccc(-c3ccc(S(C)(=O)=O)cc3)cc2)CC1 ; what melting point value has been reported?
179 to 180 °C
